Sourced from patent US8586747B2

# Tested on: AMP-activated protein kinase (AMPK)
# ASSAY: ADP Quest assay for AMPK activators
# Assay type: biochemical
# Parameters: key: fold AMPK activation with vs without activator at 30 µM
# CONDITION_SUMMARY: fold of AMPK activation to phosphorylate SAMS peptide without and with an activator at the concentration of 30 µM
MEASUREMENT_KIND: E30

1. CC1(C)Cc2cc(C(=O)O)ccc2NC1c1cc(N2CCOCC2)ccc1F (centres unmarked) [Example 53] : 1.33
2. CC1CN(c2cccc(C3Nc4ccc(C(=O)O)cc4CC3(C)C)c2)CC(C)O1 (centres unmarked) [Example 106] : 1.3
3. CC1(C)Cc2cc(C(=O)O)ccc2NC1c1cccc(-c2ccc(Cl)cc2)c1 (centres unmarked) [Example 109] : 1.24
4. CC1(C)Cc2ccc(C(=O)O)c(F)c2NC1c1cccc(N2CCOCC2)c1 (centres unmarked) [Example 137] : 1.26
5. CC1(C)Cc2cc(C(=O)O)ccc2NC1c1cccc(S(=O)(=O)Nc2ccccc2)c1 (centres unmarked) [Example 230] : 1.27
6. CC1(C)Cc2cc(C(=O)O)ccc2NC1c1cccc(-n2nnnc2Cc2ccccc2)c1 (centres unmarked) [Example 147] : 1.35
7. CC1(C)Cc2cc(C(=O)O)ccc2NC1c1cccc(N2CCN(c3ccc(Cl)cc3)CC2)c1 (centres unmarked) [Example 87] : 1.3
8. CC1(C)Cc2cc(C(=O)O)ccc2NC1c1cccc(NC(=O)c2cccc(F)c2)c1 (centres unmarked) [Example 6] : 1.31
9. CC1(C)Cc2cc(C(=O)O)ccc2NC1c1cc(F)cc(N2CCCC2=O)c1 (centres unmarked) [Example 76] : 1.47
10. CC1(C)Cc2cc(C(=O)O)ccc2NC1c1ccc(N2CCOCC2)cc1 (centres unmarked) [Example 72] : 1.21
11. CC1(C)Cc2cc(C(=O)O)ccc2NC1c1ccccc1NC(=O)C1CC1 (centres unmarked) [Example 214] : 1.41
12. CC1(C)Cc2cc(C(=O)NS(C)(=O)=O)ccc2NC1c1cc(C#N)cc(N2CCOCC2)c1 (centres unmarked) [Example 69] : 1.28
13. CC1(C)Cc2cc(C(=O)O)ccc2NC1c1cccc(N2C(=O)OCC2(C)C)c1 (centres unmarked) [Example 34] : 1.15
14. CN1CCN(c2cccc(C3Nc4ccc(C(=O)NS(C)(=O)=O)cc4CC3(C)C)c2)C(=O)C1=O (centres unmarked) [Example 131] : 1.24
15. CCN1CCCC1CNC(=O)c1cccc(C2Nc3ccc(C(=O)O)cc3CC2(C)C)c1 (centres unmarked) [Example 205] : 1.38
16. CC1(C)Cc2cc(C(=O)O)ccc2NC1c1ccccc1NC1(C(=O)O)CC1 (centres unmarked) [Example 164] : 1.78
17. CC1(C)Cc2cc(C(=O)O)ccc2NC1c1cccc(NC(=O)c2ccccn2)c1 (centres unmarked) [Example 4] : 1.33

====

# System: AMP-activated protein kinase (AMPK)
# ASSAY: ADP Quest assay for AMPK activators
# Format: biochemical
# Parameters: key: fold AMPK activation with vs without activator at 30 µM
# CONDITION_SUMMARY: fold of AMPK activation to phosphorylate SAMS peptide without and with an activator at the concentration of 30 µM
MEASUREMENT_KIND: E30

1. CC1(C)Cc2cc(C(=O)O)ccc2NC1c1cccc(N2C(=O)OCC2Cc2ccccc2)c1 (stereo in doubt) [Example 127] : 1.26
2. CC(C)(C)c1ccc(-c2cccc(C3Nc4c(cc(Cl)cc4C(=O)NS(=O)(=O)C4CC4)CC3(C)C)c2)cc1 (stereo not shown) : 1.33
3. CC1(C)Cc2cc(C(=O)O)ccc2NC1c1cc(Cl)cc(NC(=O)c2ccccc2)c1 (stereo not shown) : 1.22
4. CC1(C)Cc2cc(C(=O)O)ccc2NC1c1cccc(-n2cnc3c(c2=O)CCN(Cc2ccccc2)C3)c1 (stereo not shown) : 1.3
5. CC1(C)Cc2c(cc(F)cc2C(=O)NS(C)(=O)=O)NC1c1cccc(N2CCOCC2)c1 (stereo not shown) : 1.31
6. CC1(C)Cc2cc(C(=O)NS(=O)(=O)C3CC3)ccc2NC1c1cccc(N2CC(F)C2)c1 (stereo not shown) : 1.27
7. CC(C)(C)c1ccc(-c2cccc(C3Nc4c(cc(Cl)cc4C(=O)NS(C)(=O)=O)CC3(C)C)c2)cc1 (stereo not shown) : 1.25

====

# System: AMP-activated protein kinase (AMPK)
# ASSAY: ADP Quest assay for AMPK activators
# Format: biochemical
# Set-up: key: fold AMPK activation with vs without activator at 30 µM
# CONDITION_SUMMARY: fold of AMPK activation to phosphorylate SAMS peptide without and with an activator at the concentration of 30 µM
MEASUREMENT_KIND: E30

Recorded results for 6 molecules are shown here.
1) CC1(C)Cc2cc(C(=O)NS(=O)(=O)C3CC3)ccc2NC1c1cc(N2CCOCC2)ccc1F (centres unmarked) : 1.28
2) CN(C)S(=O)(=O)Nc1cccc(C2Nc3ccc(C(=O)O)cc3CC2(C)C)c1 (centres unmarked) : 1.29
3) CC(C)C(=O)Nc1ccc(C2Nc3ccc(C(=O)O)cc3CC2(C)C)cc1 (centres unmarked) : 1.36
4) CC1(C)Cc2cc(C(=O)O)ccc2NC1c1cccc(NC(=O)N2CCCC2)c1 (centres unmarked) : 1.41
5) CN1CCN(c2cccc(C3Nc4ccc(C(=O)O)cc4CC3(C)C)c2)C1=O (centres unmarked) : 1.59
6) CC(C)[C@H]1COC(=O)N1c1cccc(C2Nc3ccc(C(=O)O)cc3CC2(C)C)c1 (some centres unmarked) : 1.39

[a] CC1(C)Cc2cc(C(=O)O)ccc2NC1c1cc(F)cc(N2CCNCC2)c1 (centres unmarked)
[b] CC(C)(Nc1cccc(C2Nc3ccc(S(C)(=O)=O)cc3CC2(C)C)c1)C(=O)O (centres unmarked)
QUERY: Select one. Lower E30: a or b Reply briefly: the label of your chosen item.
RESULT: a

====

# Tested on: AMP-activated protein kinase (AMPK)
# ASSAY: ADP Quest assay for AMPK activators
# Type: biochemical
# Set-up: key: fold AMPK activation with vs without activator at 30 µM
# CONDITION_SUMMARY: fold of AMPK activation to phosphorylate SAMS peptide without and with an activator at the concentration of 30 µM
MEASUREMENT_KIND: E30

1) CC1(C)Cc2cc(C(=O)O)ccc2NC1c1ccc(F)c(NC(=O)c2ccccc2)c1 (centres unmarked) : 1.24
2) CC(C)Oc1ccc(-c2cccc(C3Nc4ccc(C(=O)NS(=O)(=O)C5CC5)cc4CC3(C)C)c2)cc1 (centres unmarked) : 2.74
3) CN1CCN(C(=O)C(C)(C)Nc2cccc(C3Nc4ccc(C(=O)O)cc4CC3(C)C)c2)CC1 (centres unmarked) : 1.31
4) CC1(C)Cc2cc(C(=O)NS(C)(=O)=O)ccc2NC1c1cccc(N2CCN(c3ccc(Cl)cc3)CC2)c1 (centres unmarked) : 1.35
5) CN1CCN(c2cccc(C3Nc4ccc(C(=O)O)cc4CC3(C)C)c2)C(=O)C1=O (centres unmarked) : 1.28
6) CC1(C)Cc2cc(C(=O)O)ccc2NC1c1cc(F)cc(-c2ccc(C#N)cc2)c1 (centres unmarked) : 1.42

[a] CC(C)(C)c1ccc(-c2cc(F)cc(C3Nc4ccc(C(=O)NS(C)(=O)=O)cc4CC3(C)C)c2)cc1 (centres unmarked)
[b] CC1(C)Cc2cc(C(=O)O)ccc2NC1c1ccc(NS(=O)(=O)c2ccc(F)cc2)cc1 (centres unmarked)
QUERY: Between a and b , whose recorded E30 is greater? Reply briefly: the label of your chosen item.
RESULT: a
(a: 2.25, b: 1.31)

====

# Test system: AMP-activated protein kinase (AMPK)
# ASSAY: ADP Quest assay for AMPK activators
# Format: biochemical
# Parameters: key: fold AMPK activation with vs without activator at 30 µM
# CONDITION_SUMMARY: fold of AMPK activation to phosphorylate SAMS peptide without and with an activator at the concentration of 30 µM
MEASUREMENT_KIND: E30

1. COC(=O)c1ccc2c(c1)CC(C)(C)C(c1cccc(C(=O)Nc3cnccn3)c1)N2 (centres unmarked) : 1.22
2. CC1(C)Cc2cc(C(=O)NS(C)(=O)=O)ccc2NC1c1cc(F)cc(N2CCCC2)c1 (centres unmarked) : 1.61
3. CC1(C)Cc2c(ccc(Cl)c2C(=O)O)NC1c1cccc(N2CCOCC2)c1 (centres unmarked) : 1.56
4. CC(C)(C)c1ccc(-c2cccc(C3Nc4c(cc(Cl)cc4C(=O)O)CC3(C)C)c2)cc1 (centres unmarked) : 1.54
5. CC1(C)Cc2cc(C(=O)O)ccc2NC1c1cccc(C(N)=O)c1 (centres unmarked) : 1.58
6. CC1(C)Cc2cc(C(=O)O)ccc2NC1c1cccc(NS(C)(=O)=O)c1 (centres unmarked) : 1.42
7. CN(CC(=O)O)C(=O)c1ccc2c(c1)CC(C)(C)C(c1cccc(N3CCOCC3)c1)N2 (centres unmarked) : 1.32
8. CC1(C)Cc2cc(C(=O)O)ccc2NC1c1cc(Cl)cc(N2CCOCC2)c1 (centres unmarked) : 1.28
